Values were extracted from PubChem BioAssay.

The following molecules are shown together with reported composite z-score values.
# System: Human papillomavirus type 1a E7 protein (residues 1-88)
# protocolDetails: HPV1a E7 small-molecule binders, primary screen, biochemical, small-molecule microarray, residues 1-88, 635 nm (AID 1129)
# experimentalContext: small-molecule microarray binding, fluorescence 635 nm; higher = more signal

{"molecule": "CCCC[C@@H]1C[C@H]1[C@@H](NC(=O)c1cccs1)c1ccc(-c2ccccc2)cc1", "measuredOn": "Human papillomavirus type 1a E7 protein (residues 1-88)", "composite z-score": 0.852}
{"molecule": "COc1ccc(-c2cc3c(c(-c4ccc(Oc5ccccc5)cc4)n2)[Si](C(C)C)(C(C)C)OC3)cn1", "measuredOn": "Human papillomavirus type 1a E7 protein (residues 1-88)", "composite z-score": -0.221}
{"molecule": "CCCCN1CC=CC23O[C@@H]4C=CCCOC(=O)C4[C@H]2C(=O)N(CCCCCCO)[C@@H]3C1=O (stereo not given in full)", "measuredOn": "Human papillomavirus type 1a E7 protein (residues 1-88)", "composite z-score": -0.268}
{"molecule": "CCN(CC)c1ccc(N2CC=CC34O[C@@H]5C=CCCOC(=O)C5[C@H]3C(=O)N(CCCCCCO)[C@@H]4C2=O)cc1 (stereo not given in full)", "measuredOn": "Human papillomavirus type 1a E7 protein (residues 1-88)", "composite z-score": 0.321}
{"molecule": "CCCCCCc1nc(-c2cc(C)c(OC)c(C)c2)cc2c1[Si](C(C)C)(C(C)C)OC2", "measuredOn": "Human papillomavirus type 1a E7 protein (residues 1-88)", "composite z-score": 0.103}
